Molecular target: TRPM7/ChaK1 kinase domain (purified recombinant ChaK1-cat) (Mus musculus)
Construct: Expression and purification of recombinant ChaK1 kinase domain was performed as described
Sequence (Q923J1 1592-1822 limits assumed): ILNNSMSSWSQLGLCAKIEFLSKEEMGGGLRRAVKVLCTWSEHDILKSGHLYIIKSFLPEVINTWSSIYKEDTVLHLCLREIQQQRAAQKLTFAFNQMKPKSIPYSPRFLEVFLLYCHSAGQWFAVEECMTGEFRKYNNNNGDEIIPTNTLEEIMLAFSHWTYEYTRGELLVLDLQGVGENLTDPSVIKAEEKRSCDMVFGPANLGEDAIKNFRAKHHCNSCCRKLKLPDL
Assay: ChaK1-cat kinase activity: phosphorylation of myelin basic protein with [γ-33P]ATP, SDS-PAGE and autoradiography
Procedure: The reaction was performed using purified recombinant ChaK1-cat and myelin basic protein. The samples were analyzed by SDS-PAGE and autoradiography; and The bands corresponding to phosphorylated myelin basic protein (on the autoradiogram shown in B) were quantified using the Kodak 1D imaging program. […] We analyzed the sensitivity of ChaK1 to some known inhibitors of conventional protein kinases.
READOUT NAME: IC50

Param item = CC(=O)c1c(O)c(C)c(O)c(Cc2c(O)c3c(c(C(=O)/C=C/c4ccccc4)c2O)OC(C)(C)C=C3)c1O ; retrieve measured IC50.
~35 µM
